Reported pIC50 by item:
Test system: L1210
Test: In vitro cytotoxicity determined against murine leukemia L1210 cells by MTT assay
Assay type: functional, cell-based
Conditions: Mus musculus
For clarity, pIC50 is expressed as the negative log10 of concentration in mol/L.

| smiles_code | measured |
| --- | --- |
| CCCCCCCCn1c2nc(=O)n(-c3ccccc3)c(=O)c-2cc2c1C(=O)C(OC)=CC2=O | 5.74 |

// query I have this compound here, CCCCCCn1c2nc(=O)n(-c3ccccc3)c(=O)c-2cc2c1C(=O)C(OC)=CC2=O , and I need its recorded pIC50.
// result 5.89

// query I have this compound here, CCCCCCCCn1c2nc(=O)n(C)c(=O)c-2cc2c1C(=O)C(OC)=CC2=O , and I need its recorded pIC50.
// result 6.40
